Origin of measurements: patent US12691070B2

System: Hep G2 cells
EXPERIMENT: In vitro toxicity (CellTiter-Glo cell viability), Hep G2;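 also: percent of untreated cells luminescence signal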
Assay type: cell-based
CONDITION SET: mRNA (SEQ ID NO: 2) LNP, 1 μg/mL, 72 hours post transfection
Experimental: RAW 264.7 and Hep G2 cells were transfected with 1 μg/mL RNA-LNPs. At 72 hours post transfection, cell viability was determined with the CellTiter-Glo® reagent kit, according to the kit protocol, measured by a luminometer. The cell viability was calculated according to the following formula: […]
VALUE TYPE: In vitro Viability HepG2 (%)
// note: answer is a bare numeric in %

# annotated cases, reported In vitro Viability HepG2 shown
COMPOUND	In vitro Viability HepG2, %
CCCCC/C=C\C/C=C\CCCCCCCCN(CCCCCCCC(=O)OC(CCCCCCCC)CCCCCCCC)CCOC(=O)NCCCN(CC)CC	89
CCCCC/C=C\C/C=C\CCCCCCCCN(CCCCCCCC(=O)OC(CCCCCCCC)CCCCCCCC)CCOC(=O)NCCN(C)C	100
CCCCCCCCCC(=O)OCCCCCCCN(CCCCCCCCOC(=O)C(CCCCCC)CCCCCCCC)CCOC(=O)NCCN1CCCCC1 (centres unmarked)	91

Consider CCCCCCCCC(CCCCCCCC)OC(=O)CCCCCCCN(CCCCCCCCOC(=O)C(CCCCCC)CCCCCCCC)CCCOC(=O)NCCN1CCCC1 (centres unmarked) . Its measured In vitro Viability HepG2 is 111

Consider CCCCCCCCCC(=O)OCCCCCCCN(CCCCCCCCOC(=O)C(CCCCCC)CCCCCCCC)CCOC(=O)NCCN(C)C (centres unmarked) . Its measured In vitro Viability HepG2 is 116
